Source listed as patent US20250230159A1.

systemTested: KRAS-G12C/SOS1 interaction (Homo sapiens (Human), UniProt Q07889)
Sequence (Q07889 whole entry, stated change not applied): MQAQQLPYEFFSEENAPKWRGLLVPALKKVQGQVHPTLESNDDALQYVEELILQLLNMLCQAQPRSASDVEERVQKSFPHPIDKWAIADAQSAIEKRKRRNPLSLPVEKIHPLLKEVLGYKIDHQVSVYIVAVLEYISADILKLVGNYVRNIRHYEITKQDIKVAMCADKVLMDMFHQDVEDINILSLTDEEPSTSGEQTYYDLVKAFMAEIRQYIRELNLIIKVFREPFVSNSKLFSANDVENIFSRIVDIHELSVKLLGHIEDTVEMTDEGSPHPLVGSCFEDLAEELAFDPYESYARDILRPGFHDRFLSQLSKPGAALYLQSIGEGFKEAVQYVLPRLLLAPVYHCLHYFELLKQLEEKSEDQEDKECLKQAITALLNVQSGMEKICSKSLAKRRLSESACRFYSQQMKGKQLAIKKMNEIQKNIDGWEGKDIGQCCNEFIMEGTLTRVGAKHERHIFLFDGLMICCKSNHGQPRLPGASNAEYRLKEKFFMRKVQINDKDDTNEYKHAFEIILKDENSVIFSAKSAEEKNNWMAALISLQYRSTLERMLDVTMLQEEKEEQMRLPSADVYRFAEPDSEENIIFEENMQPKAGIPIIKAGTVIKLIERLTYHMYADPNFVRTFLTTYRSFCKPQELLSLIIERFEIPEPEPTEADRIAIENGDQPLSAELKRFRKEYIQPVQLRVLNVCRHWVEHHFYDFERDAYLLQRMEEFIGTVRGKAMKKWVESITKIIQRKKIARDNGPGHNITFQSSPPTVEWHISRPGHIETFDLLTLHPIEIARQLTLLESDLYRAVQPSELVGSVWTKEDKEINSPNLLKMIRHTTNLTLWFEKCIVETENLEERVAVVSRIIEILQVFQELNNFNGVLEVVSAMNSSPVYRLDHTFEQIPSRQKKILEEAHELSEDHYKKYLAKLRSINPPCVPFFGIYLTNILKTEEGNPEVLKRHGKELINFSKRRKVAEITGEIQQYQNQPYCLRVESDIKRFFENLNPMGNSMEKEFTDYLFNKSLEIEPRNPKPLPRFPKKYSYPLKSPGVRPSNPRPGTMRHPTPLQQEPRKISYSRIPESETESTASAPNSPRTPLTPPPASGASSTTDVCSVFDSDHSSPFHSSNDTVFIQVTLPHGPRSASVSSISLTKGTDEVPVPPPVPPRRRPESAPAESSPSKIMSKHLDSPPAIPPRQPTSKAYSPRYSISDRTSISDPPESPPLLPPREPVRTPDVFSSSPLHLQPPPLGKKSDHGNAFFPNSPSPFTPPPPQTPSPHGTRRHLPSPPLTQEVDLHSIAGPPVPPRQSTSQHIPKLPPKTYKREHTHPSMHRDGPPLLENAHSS
protocolText: Protein-Protein Interaction (PPI) assay, SOS1-KRAS binding assay kit (HTRF)
Description: This Example illustrates that exemplary compounds of the present invention blockade the interaction of SOS1 to KRAS protein. The ability of a compound of Formula (I) to block the interaction of SOS1 to KRAS was measured using a SOS1-KRAS binding assay kit (CAT #63ADK000CB16PEG, Cisbio). Utilizing HTRF (Homogeneous Time-resolved Fluorescence) technology, the assay enables simple and rapid characterization of compound and antibody blockers in a high throughput format. […]
IC50 overview

- compound: "Cc1nc(N[C@H](C)c2cccc(C(F)F)c2F)c2cc(N3CC(O)C3)c3nncn3c2n1"
  systemTested: "KRAS-G12C/SOS1 interaction (Homo sapiens (Human), UniProt Q07889)"
  IC50: "> 100 nM"
- compound: "Cc1nc(N[C@H](C)c2cccc(C(F)F)c2F)c2cc(C(=O)N(C(C)C)C(C)C)c3ncnn3c2n1"
  systemTested: "KRAS-G12C/SOS1 interaction (Homo sapiens (Human), UniProt Q07889)"
  IC50: "> 100 nM"
- compound: "CC(=O)N1CC=C(c2cc3c(N[C@H](C)c4cccc(C(F)F)c4F)nc(C)nc3n3cnnc23)CC1(C)C"
  systemTested: "KRAS-G12C/SOS1 interaction (Homo sapiens (Human), UniProt Q07889)"
  IC50: "> 100 nM"
- compound: "Cc1nc(N[C@H](C)c2cccc(C(F)F)c2F)c2cc(C(=O)N3CC4(CCC4)C3)c3ncnn3c2n1"
  systemTested: "KRAS-G12C/SOS1 interaction (Homo sapiens (Human), UniProt Q07889)"
  IC50: "> 100 nM"
- compound: "Cc1nc(N[C@H](C)c2cccc(C(F)F)c2F)c2cc(C(=O)NC(C)(C)C)c3nnnn3c2n1"
  systemTested: "KRAS-G12C/SOS1 interaction (Homo sapiens (Human), UniProt Q07889)"
  IC50: "> 100 nM"
- compound: "CC(=O)N1CC=C(c2cc3c(N[C@H](C)c4cccc(C(F)F)c4F)nc(C)nc3n3cnnc23)C1"
  systemTested: "KRAS-G12C/SOS1 interaction (Homo sapiens (Human), UniProt Q07889)"
  IC50: "> 100 nM"
- compound: "CCOC(=O)c1cc2c(N[C@H](C)c3cc(N)cc(C(F)(F)F)c3)nc(C)nc2n2ncnc12"
  systemTested: "KRAS-G12C/SOS1 interaction (Homo sapiens (Human), UniProt Q07889)"
  IC50: "> 100 nM"
- compound: "Cc1nc(N[C@H](C)c2cccc(C(F)F)c2F)c2cc(C(=O)N(C(C)C)C(C)C)c3nnnn3c2n1"
  systemTested: "KRAS-G12C/SOS1 interaction (Homo sapiens (Human), UniProt Q07889)"
  IC50: "> 100 nM"
- compound: "CCS(=O)(=O)N1CCC(c2cc3c(N[C@H](C)c4cccc(C(F)F)c4F)nc(C)nc3n3cnnc23)CC1"
  systemTested: "KRAS-G12C/SOS1 interaction (Homo sapiens (Human), UniProt Q07889)"
  IC50: "> 100 nM"
- compound: "Cc1nc(N[C@H](C)c2cccc(C(F)F)c2F)c2cc(C(=O)N(C)C3COC3)c3ncnn3c2n1"
  systemTested: "KRAS-G12C/SOS1 interaction (Homo sapiens (Human), UniProt Q07889)"
  IC50: "> 100 nM"

Query (compound): Cc1nc(N[C@H](C)c2cccc(C(F)F)c2F)c2cc(C(=O)N3CCOC[C@H]3C)c3ncnn3c2n1 ; field requested: IC50
> 100 nM
